Kindly state z-score for each of the entries shown.
- Assay method text: fission yeast growth modulation, primary screen, strain 972, OD600, 24 h, no modulator (AID 1090);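 also: basal condition with compound alone and no growth modifier present; test concentration not given here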
- Condition parameters: S. pombe 972 growth, higher = more signal, called active from +8 up or from −8 down
Output spec: single numeric token, no unit.

Memo: NC(=O)N1C(=O)C2C(C1=O)C1C=C(CCCO)C2C(C2CC2)N1Cc1cccc(OC(F)(F)F)c1 (stereo not drawn) , reported z-score: -0.497

So for C=C(C)C1CCC(C(O)C2C=CC3C(=O)N(C)C(=O)C3N2Nc2cc(OC)c(OC)c(OC)c2)CC1 (stereo not drawn) , the logged z-score turned out to be 0.458

Just so you know, measured z-score for CN1C(=O)C2C=CC(C(O)c3cc(C(F)(F)F)cc(C(F)(F)F)c3)N(Nc3ccccc3)C2C1=O (stereo not drawn) came out at -0.714

Just so you know, measured z-score for COc1cc2c(cc1OC)CN(C(=O)[C@@H]1[C@H]3C(=O)O[C@H](c4ccccc4)[C@H](c4ccccc4)N3[C@H](c3ccc(O)cc3)[C@@]13C(=O)Nc1ccc(C#CCCO)cc13)CC2 came out at 0.673

Entry C=CC[C@H](OC(=O)Nc1ccc(SC)cc1)c1ccc(OCCO)cc1 , z-score reported as -2.94

z-score in this record for [N-]=[N+]=NCc1ccccc1[C@H]1OC(c2ccc(OCCCO)cc2)=N[C@@]1(CCS(=O)(=O)c1ccccc1)C(=O)NCc1ccccc1 : 0.431

Query COc1cc(NN2C(C(O)C3CCCCC3)C=CC3C(=O)N(C)C(=O)C32)cc(OC)c1OC (stereo not drawn) yields z-score of 0.169

The molecule identified as C=CCOC(=O)[C@H]1[C@@H]2C(=O)O[C@@H](c3ccccc3)[C@@H](c3ccccc3)N2[C@@H](c2ccc(OCCOC(=O)[C@H]3C[C@H]4C(=O)N[C@@H](CCCCNC(C)=O)C(=O)N4[C@H]3c3cccc(OCCO)c3)cc2)[C@]12C(=O)Nc1ccc(I)cc12 registered its z-score at 1.14

// provenance: PubChem BioAssay
